# EXPERIMENT DESCRIPTION: Approximate solubility of Zileuton in various solvents/vehicles
# Format: physicochemical
# TEST PARAMETERS: N-methyl-2-pyrrolidone, 25 °C, organic solvent or mixture, vehicle N-methyl-2-pyrrolidone

COMPOUND	solubility
CC(c1cc2ccccc2s1)N(O)C(N)=O (racemic)	> 200 mg/mL

---

# EXPERIMENT DESCRIPTION: Approximate solubility of Zileuton in various solvents/vehicles
# Type: physicochemical
# TEST PARAMETERS: Lauroyl polyoxyl-32 glycerides, 50 °C, oil or lipid, vehicle Lauroyl polyoxyl-32 glycerides
ASSAY ENDPOINT: solubility

MOLECULE	DATA VALUE
CC(c1cc2ccccc2s1)N(O)C(N)=O (racemic)	< 10000 µg/mL

Attribution: patent US12582598B2
